- system_name: recombinant human PKM2 (Homo sapiens, UniProt P14618)
- Construct: His (N); purchased R&D Systems
- Sequence (P14618 2-531 limits assumed): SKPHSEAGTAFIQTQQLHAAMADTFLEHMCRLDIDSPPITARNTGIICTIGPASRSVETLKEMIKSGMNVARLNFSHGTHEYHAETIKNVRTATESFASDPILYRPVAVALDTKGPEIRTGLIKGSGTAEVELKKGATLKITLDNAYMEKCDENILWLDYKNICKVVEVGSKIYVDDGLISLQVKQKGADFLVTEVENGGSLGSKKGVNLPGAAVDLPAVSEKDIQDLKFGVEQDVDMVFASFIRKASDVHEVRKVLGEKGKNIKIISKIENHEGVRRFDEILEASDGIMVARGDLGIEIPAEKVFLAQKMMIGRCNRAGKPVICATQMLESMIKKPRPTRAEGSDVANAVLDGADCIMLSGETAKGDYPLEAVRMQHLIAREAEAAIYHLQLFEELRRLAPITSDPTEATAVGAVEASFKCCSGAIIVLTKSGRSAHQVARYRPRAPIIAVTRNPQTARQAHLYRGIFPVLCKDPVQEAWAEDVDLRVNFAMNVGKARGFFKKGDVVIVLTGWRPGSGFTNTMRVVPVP
- assay_explanation: Human PKM2 activation assay (Kinase-Glo Plus luminescent detection of generated ATP)
- Type: biochemical
- condition_label: recombinant human PKM2 activation; 4-parameter logistic fit; read-out: hPKM2 EC50
endpoint_label: EC50 (nM)

>>> observed_result("O=c1c2ccc(S(=O)(=O)c3ccccc3)cc2cnn1Cc1ccsc1CO")
102

I = O=c1c2ccc(S(=O)(=O)c3ccccc3)cc2cnn1Cc1ccn(C(F)F)n1
II = N#Cc1c[nH]nc1Cn1ncc2cc(S(=O)(=O)c3ccccc3)ccc2c1=O
Data request: Input pair: I , II . Output: entry with lower EC50. // output: label of the selected item
Data returned: I
(I: 162 nM, II: 841 nM)

###

- system_name: recombinant human PKM2 (Homo sapiens, UniProt P14618)
- Construct: His (N); purchased R&D Systems
- assay_explanation: Human PKM2 activation assay (Kinase-Glo Plus luminescent detection of generated ATP)
- Type: biochemical
- condition_label: percentage activation normalised to DMSO vehicle (LOW) and 5 μM TEPP-46 (HIGH); read-out: hPKM2 Emax
endpoint_label: Emax (%)

>>> observed_result("O=c1c2ccc(S(=O)(=O)c3ccccn3)cc2cnn1Cc1cc[nH]n1")
80.7
>>> observed_result("Cc1c(Cn2ncc3cc(S(=O)(=O)c4cn[nH]c4)ccc3c2=O)nn2c1OCC2")
105
>>> observed_result("Cc1c[nH]nc1Cn1ncc2cc(S(=O)(=O)c3ccccc3)ccc2c1=O")
92
>>> observed_result("CC1(C)Cc2cc(Cn3ncc4cc(S(=O)(=O)c5ccccc5)ccc4c3=O)ccc2O1")
110

###

- system_name: recombinant human PKM2 (Homo sapiens)
- Construct: His (N); purchased R&D Systems
- assay_explanation: Human PKM2 activation assay (Kinase-Glo Plus luminescent detection of generated ATP)
- Type: biochemical
- condition_label: recombinant human PKM2 activation; 4-parameter logistic fit; read-out: hPKM2 EC50
endpoint_label: EC50 (nM)

>>> observed_result("COc1ccc(F)c(Cn2ncc3cc(S(=O)(=O)c4ccccc4)ccc3c2=O)c1")
63.3
>>> observed_result("COc1ccc(Cn2ncc3cc(S(=O)(=O)c4ccc(F)cc4)ccc3c2=O)cn1")
94.8
>>> observed_result("O=c1c2ccc(S(=O)(=O)c3ccc4occc4n3)cc2cnn1Cc1cc[nH]n1")
45

a = COc1ccc([S@@](=N)(=O)c2ccc3c(=O)n(Cc4ccc(OC)nc4)ncc3c2)cc1 (single isomer, unassigned) [Example 191]
b = Cc1cccc(Cn2ncc3cc(S(=O)(=O)c4cnn(C5COC5)c4)ccc3c2=O)n1
c = Cc1c(Cn2ncc3cc(S(=O)(=O)c4cn[nH]c4)ccc3c2=O)nn2c1OCC2
Data request: Thanks in advance: please rank these 3 entries by EC50, highest to lowest. // ordering of labels required in reply
Data returned: b, a, c

###

- system_name: recombinant human PKM2 (Homo sapiens, UniProt P14618)
- Construct: His (N); purchased R&D Systems
- assay_explanation: Human PKM2 activation assay (Kinase-Glo Plus luminescent detection of generated ATP)
- Assay type: biochemical
- condition_label: percentage activation normalised to DMSO vehicle (LOW) and 5 μM TEPP-46 (HIGH); read-out: hPKM2 Emax
endpoint_label: Emax (%)

// solved cases for Emax follow
>>> observed_result("COc1ccc(S(=O)(=O)c2ccc3c(=O)n(Cc4ccn(CCO)n4)ncc3c2)cc1")
123
>>> observed_result("NC(=O)c1sccc1Cn1ncc2cc(S(=O)(=O)c3ccccc3)ccc2c1=O")
113

1 = Cn1ncc2ccc(Cn3ncc4cc(S(=O)(=O)c5ccccc5)ccc4c3=O)cc21
2 = Nc1cccc(Cn2ncc3cc(S(=O)(=O)c4ccccc4)ccc3c2=O)c1
Data request: Thinking about recorded Emax values, which is higher, 1 or 2 ? // output: label of the selected item
Data returned: 2

a = O=c1c2ccc(S(=O)(=O)c3ccccc3)cc2cnn1Cc1cncc(O)c1
b = O=c1c2ccc(S(=O)(=O)c3ccccc3)cc2cnn1C(CO)c1ccccc1 (stereo not drawn)
Data request: Thinking about recorded Emax values, which is higher, a or b ? // output: label of the selected item
Data returned: a

1 = Cc1ncc(Cn2ncc3cc(S(=O)(=O)c4ccccc4)ccc3c2=O)s1
2 = CNC(=O)c1occc1Cn1ncc2cc(S(=O)(=O)c3ccc(OC)cc3)ccc2c1=O
Data request: Thinking about recorded Emax values, which is higher, 1 or 2 ? // output: label of the selected item
Data returned: 1

###

- system_name: recombinant human PKM2 (Homo sapiens)
- Construct: His (N); purchased R&D Systems
- assay_explanation: Human PKM2 activation assay (Kinase-Glo Plus luminescent detection of generated ATP)
- Format: biochemical
- condition_label: percentage activation normalised to DMSO vehicle (LOW) and 5 μM TEPP-46 (HIGH); read-out: hPKM2 Emax
endpoint_label: Emax (%)

>>> observed_result("Cn1ccc(Cn2ncc3cc([S+]([O-])c4ccccc4)ncc3c2=O)n1 (centres unmarked)")
98.1
>>> observed_result("O=c1c2ccc(S(=O)(=O)c3csc(C4CC4)n3)cc2cnn1Cc1cc[nH]n1")
96.7
>>> observed_result("Cn1ccc(Cn2ncc3cc(S(=O)(=O)c4ccccc4)ncc3c2=O)n1")
103
>>> observed_result("COc1ccc(Cn2ncc3cc(S(=O)(=O)c4cccc5[nH]ncc45)ccc3c2=O)cn1")
74.4
>>> observed_result("Cn1ccc(S(=O)(=O)c2ccc3c(=O)n(Cc4cccc(OC(F)F)c4)ncc3c2)n1")
74
>>> observed_result("COc1ccc(Cn2ncc3cc(S(=O)(=O)c4ccn(C(F)F)n4)ccc3c2=O)cn1")
89.7
>>> observed_result("COc1ccc(Cn2ncc3cc(S(=O)(=O)c4cnc5c(c4)CCO5)ccc3c2=O)cn1")
79.7
>>> observed_result("COc1ccc(Cn2ncc3cc(S(=O)(=O)c4cc[nH]n4)ccc3c2=O)cn1")
107

###

- system_name: recombinant human PKM2 (Homo sapiens, UniProt P14618)
- Construct: His (N); purchased R&D Systems
- assay_explanation: Human PKM2 activation assay (Kinase-Glo Plus luminescent detection of generated ATP)
- Format: biochemical
- condition_label: recombinant human PKM2 activation; 4-parameter logistic fit; read-out: hPKM2 EC50
- Procedure: Compound activation of recombinant human PKM2 pyruvate kinase activity was determined by biochemical assay. […] The Kinase-Glo® Plus luminescence assay was from Promega. […] After 60 minutes' incubation on an orbital shaker (300 rpm, 26° C.), enzyme activity was quantified by the luminescent detection of generated ATP. […] Percentage activation was calculated by normalising […] signals to plate LOW (DMSO vehicle) and HIGH (5 μM TEPP-46) controls. […]
endpoint_label: EC50 (nM)

// solved cases for EC50 follow
>>> observed_result("COc1ccc([S@@](=N)(=O)c2ccc3c(=O)n(Cc4ccc(OC)nc4)ncc3c2)cc1 (single isomer, unassigned) [Example 138]")
85.6
>>> observed_result("O=c1c2ccc(S(=O)(=O)c3ccc4occc4n3)cc2cnn1Cc1ccn(C2CC2)n1")
31.7
>>> observed_result("COc1ccc(Cn2ncc3cc([S@@](=N)(=O)c4ccccc4)ccc3c2=O)cn1 (single isomer, unassigned)")
444
>>> observed_result("COc1ccc(F)c(Cn2ncc3cc(S(=O)(=O)c4cc[nH]n4)ccc3c2=O)n1")
232
>>> observed_result("COc1ccc(Cn2ncc3cc(S(=O)(=O)c4ccccc4)ccc3c2=O)cn1")
42.1

1 = O=c1c2ccc(S(=O)(=O)c3ccccc3)cc2cnn1C(F)(F)c1cccnc1
2 = COC(C)c1nc(S(=O)(=O)c2ccc3c(=O)n(Cc4ccc5c(n4)CCO5)ncc3c2)cs1 (stereo not shown)
Data request: Thinking about recorded EC50 values, which is higher, 1 or 2 ? // output: label of the selected item
Data returned: 1
(1: 802 nM, 2: 36.7 nM)

###

- system_name: recombinant human PKM2 (Homo sapiens, UniProt P14618)
- Construct: His (N); purchased R&D Systems
- assay_explanation: Human PKM2 activation assay (Kinase-Glo Plus luminescent detection of generated ATP)
- Type: biochemical
- condition_label: percentage activation normalised to DMSO vehicle (LOW) and 5 μM TEPP-46 (HIGH); read-out: hPKM2 Emax
endpoint_label: Emax (%)

// solved cases for Emax follow
>>> observed_result("Cc1cc(Cn2ncc3cc(S(=O)(=O)c4cn[nH]c4)ncc3c2=O)n[nH]1 [Example 300]")
93.2
>>> observed_result("COCC(c1ccccc1)n1ncc2cc(S(=O)(=O)c3ccc(OC)cc3)ccc2c1=O (stereo not drawn) [Example 82]")
87.4
>>> observed_result("COc1ccc(S(=O)(=O)c2ccc3c(=O)n(Cc4cc(C)[nH]n4)ncc3c2)cc1 [Example 54]")
112
>>> observed_result("O=c1c2ccc(S(=O)(=O)c3ccn(CCO)n3)cc2cnn1Cc1cccnc1O [Example 237]")
80.7
>>> observed_result("COc1ccc(S(=O)(=O)c2ccc3c(=O)n(Cc4ccc(OC)cc4C(N)=O)ncc3c2)cc1 [Example 106]")
93
>>> observed_result("COc1ccc(S(=O)(=O)c2ccc3c(=O)n(Cc4n[nH]cc4C)ncc3c2)cc1 [Example 104]")
104

1 = O=c1c2ccc(S(=O)(=O)c3cn[nH]c3)cc2cnn1Cc1ccc2c(n1)OCCO2 [Example 344]
2 = COc1ccc(Cn2ncc3cc(S(=O)(=O)c4cccc(C(N)=O)c4)ccc3c2=O)cn1 [Example 161]
Data request: Thinking about recorded Emax values, which is higher, 1 or 2 ? // output: label of the selected item
Data returned: 1
(1: 107%, 2: 56.8%)

P = O=c1c2ccc(S(=O)(=O)c3cnn(C4CC4)c3)cc2cnn1Cc1cc[nH]n1 [Example 228]
Q = C[C@H](O)c1cccc(Cn2ncc3cc(S(=O)(=O)c4cnn(C)c4)ccc3c2=O)n1 (single isomer, unassigned) [Example 278]
Data request: Input pair: P , Q . Output: entry with lower Emax. // output: label of the selected item
Data returned: Q
(Q: 78.6%, P: 116%)

A = COc1ccc(Cn2ncc3cc(S(=O)(=O)c4cccc(OC(F)F)c4)ccc3c2=O)cn1 [Example 170]
B = O=c1c2ccc(S(=O)(=O)c3cn[nH]c3)cc2cnn1Cc1cnc2c(c1)CCO2 [Example 293]
Data request: Thinking about recorded Emax values, which is higher, A or B ? // output: label of the selected item
Data returned: A

I = O=c1c2ccc(S(=O)(=O)c3ccccc3)cc2cnn1Cc1cccnc1 [Example 65]
II = NC(=O)Cc1ccccc1Cn1ncc2cc(S(=O)(=O)c3ccccc3)ccc2c1=O [Example 61]
Data request: Thinking about recorded Emax values, which is higher, I or II ? // output: label of the selected item
Data returned: I
